- System: LoVo
- METHOD DESCRIPTION: MTT cytotoxicity, LoVo
- Assay type: cell-based, human
- APPLIED CONDITIONS: 48 h incubation, read-out: Cytotoxic effect, IC50
# pIC50 listing for each entry below
To interpret pIC50, take it as minus log10 of a concentration measured in moles per litre.

# example entries with known answers
{"COMPOUND": "Cc1ccc(C(C)C)cc1.NC(=S)n1nc(-c2ccccc2)cc1O.[Cl-].[Cl][Ru+]", "MEASURED TARGET": "LoVo", "MEASURED VALUE": 4.37}
{"COMPOUND": "CCc1cc(CC)n(C(N)=S)n1.Cc1ccc(C(C)C)cc1.F[P-](F)(F)(F)(F)F.[Cl-].[Ru+2]", "MEASURED TARGET": "LoVo", "MEASURED VALUE": 4.00}
{"COMPOUND": "Cc1cc(O)n(C(N)=S)n1.Cc1ccc(C(C)C)cc1.F[P-](F)(F)(F)(F)F.[Cl-].[Ru+2]", "MEASURED TARGET": "LoVo", "MEASURED VALUE": 3.96}
{"COMPOUND": "Cc1ccc(C(C)C)cc1.Cc1ccc(C(C)C)cc1.[Cl][Ru][Cl].[Cl][Ru][Cl] [compound 4, dichloro(p-cymene)ruthenium(II), reference compound]", "MEASURED TARGET": "LoVo", "MEASURED VALUE": 3.78}
{"COMPOUND": "CCc1cc(CC)n(C(N)=S)n1.Cc1ccc(C(C)C)cc1.[Cl-].[Cl][Ru+]", "MEASURED TARGET": "LoVo", "MEASURED VALUE": 4.22}

Read off the recorded pIC50 for "Cc1ccc(C(C)C)cc1.F[P-](F)(F)(F)(F)F.NC(=S)n1nc(-c2ccccc2)cc1O.[Cl-].[Ru+2]" 4.49

Tell us which pIC50 value is on record for "Cc1cc(C)n(C(N)=S)n1.Cc1ccc(C(C)C)cc1.F[P-](F)(F)(F)(F)F.[Cl-].[Ru+2]" 3.90
